Assay: NCI Yeast Anticancer Drug Screen. Data for the rad50 strain (AID 155);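 note: 0% = growth of vehicle-only cultures of the same strain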
Settings: S. cerevisiae rad50 strain growth inhibition; at 50.0 µM (retest, dose inferred, filed as 5.0); stronger effect = higher value
Compounds without any hit were thinned out: in the full panel of roughly 79,000, 15% have a hit.
Recorded growth inhibition, one value per entry.
A number alone suffices; assume %.

# annotated cases, reported growth inhibition shown
Req: Dear colleague, I am looking for the recorded growth inhibition of the following compound: "Clc1ccc(-n2ncc3c(Cl)nc(Cl)nc32)cc1"
Resp: 99

Req: Dear colleague, I am looking for the recorded growth inhibition of the following compound: CCCCCCCCCCCC1N=C(N)N=C(N)N1c1cccc(Br)c1 (stereo unspecified)
Resp: 97

Req: Dear colleague, I am looking for the recorded growth inhibition of the following compound: "CC1=C(C2=C(C)C(=O)C(=O)c3cc(C)ccc32)c2ccc(C)cc2C(=O)C1=O"
Resp: 98

Req: Dear colleague, I am looking for the recorded growth inhibition of the following compound: "Cc1ccc(/C=C2\CNC/C(=C\c3ccc(C)cc3)C2=O)cc1"
Resp: 96

More entries:
Req: Dear colleague, I am looking for the recorded growth inhibition of the following compound: "O=C(CO)NCCO"
Resp: 0

Req: Dear colleague, I am looking for the recorded growth inhibition of the following compound: "CC(=O)Nc1ccc(/C=N/NC(=S)NCC(C)C)cc1"
Resp: 10

====

Recorded growth inhibition, one value per entry.
Experiment: NCI Yeast Anticancer Drug Screen. Data for the mec2-1 strain (AID 157)
Conditions: S. cerevisiae mec2-1 strain, at 50.0 µM (retest, dose inferred, filed as 5.0), stronger effect = higher value
About 79,000 compounds went through this panel and 15% of them were active in at least one assay; those are over-represented in the sample as a whole.
A number alone suffices; assume %.

# annotated cases, reported growth inhibition shown
Req: Dear colleague, I am looking for the recorded growth inhibition of the following molecule: "Cc1nc([N+](=O)[O-])c(Sc2nncc(-c3ccccc3)n2)n1C"
Resp: 38

Req: Dear colleague, I am looking for the recorded growth inhibition of the following molecule: "O=C1C(=O)c2cccnc2-c2ncccc21"
Resp: 98

Turning now to a further molecule:
Req: Dear colleague, I am looking for the recorded growth inhibition of the following molecule: "O=S(=O)(O)c1cnccn1"
Resp: -3

====

Test: NCI Yeast Anticancer Drug Screen. Data for the bub3 strain (AID 167)
Conditions: S. cerevisiae bub3 mutant strain, at 5.0 µM (retest, dose inferred, filed as 0.5), stronger effect = higher value
About 79,000 compounds went through this panel and 15% of them were active in at least one assay; those are over-represented in the sample as a whole.
valueType: growth inhibition (%)
A number alone suffices; assume %.

Req: Dear colleague, I am looking for the recorded growth inhibition of the following compound: "O=C(O)c1ccc2c(c1)C(=O)c1ccccc1C2=O"
Resp: 1

====

Recorded growth inhibition, one value per entry.
Test: NCI Yeast Anticancer Drug Screen. Data for the bub3 strain (AID 167)
Conditions: S. cerevisiae bub3 mutant strain, at 50.0 µM, stronger effect = higher value
Compounds without any hit were thinned out: in the full panel of roughly 79,000, 15% have a hit.
A number alone suffices; assume %.

# annotated cases, reported growth inhibition shown
Req: Dear colleague, I am looking for the recorded growth inhibition of the following compound: "N=C1C(=N)c2ccccc2-c2ccccc21"
Resp: 89.6

Req: Dear colleague, I am looking for the recorded growth inhibition of the following compound: "CC1=CC(=NC(=O)CBr)C=C/C1=N\S(=O)(=O)c1ccccc1"
Resp: 84.5

Req: Dear colleague, I am looking for the recorded growth inhibition of the following compound: "C/C=C/c1cc2c(c(=O)o1)C(=O)[C@@H](O)[C@H](C)O2"
Resp: 18.9

Req: Dear colleague, I am looking for the recorded growth inhibition of the following compound: "Cc1cc(Br)c2nsnc2c1[N+](=O)[O-]"
Resp: 68.7

More entries:
Req: Dear colleague, I am looking for the recorded growth inhibition of the following compound: CCCCCCCCCCCC(=O)OC(C)C(=O)NCCCC (stereo not drawn)
Resp: -5.95

Req: Dear colleague, I am looking for the recorded growth inhibition of the following compound: C=C(CO)C(=O)OC1CC(=C)C2CC(O)C(C)C2C2OC(=O)C(=C)C12 (stereo not drawn)
Resp: 79.4

Req: Dear colleague, I am looking for the recorded growth inhibition of the following compound: "CC(=O)Nc1ccc(C(=O)CCl)cc1"
Resp: 7.6

Req: Dear colleague, I am looking for the recorded growth inhibition of the following compound: "Cn1ccc(=Nc2ccc(NC(=O)c3ccc(N=c4ccn(C)c5ccc([N+](=O)[O-])cc45)cc3)cc2)cc1"
Resp: 87.5

====

Assay: NCI Yeast Anticancer Drug Screen. Data for the cln2 rad14 strain (AID 165);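 note: 0% = growth equal to vehicle treated cultures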
Settings: S. cerevisiae cln2 rad14 strain, at 5.0 µM (retest, dose inferred, filed as 0.5)
About 79,000 compounds went through this panel and 15% of them were active in at least one assay; those are over-represented in the sample as a whole. The source made the active and inactive calls. Cut-off read from the data, not from the text of the source: active = growth inhibition above about 70%; inactive = the rest.
Log the outcome using a class from active, inactive

Req: // return assay outcome for "O=C1/C(=C/c2ccccn2)CCc2ccccc21"
Resp: inactive

Req: // return assay outcome for CCCCCCCCCCCCCCCC[N+]1(C)CCCC1c1cccnc1 (stereo unspecified)
Resp: active

Req: // return assay outcome for C=C1C(=O)C2=CC1CCC(=O)C1(C)CCC(OC(C)=O)C(C)(C)C1CC2O (stereo unspecified)
Resp: inactive

Req: // return assay outcome for "NC(=S)Nc1ccc2c(c1)Cc1ccccc1-2"
Resp: inactive

Req: // return assay outcome for "Nc1ccc(Oc2ccccc2)c(Cl)c1"
Resp: inactive

Now consider the entry below.
Req: // return assay outcome for "O=C(/C=C/c1ccccc1)c1ccc(N=Cc2ccccc2)cc1"
Resp: inactive

====

Experiment: NCI Yeast Anticancer Drug Screen. Data for the rad50 strain (AID 155);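 note: 0% = growth of vehicle-only cultures of the same strain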
Settings: S. cerevisiae rad50 strain growth inhibition; at 50.0 µM (retest, dose inferred, filed as 5.0)
The panel holds about 79,000 compounds, 15% with a hit somewhere; the sample as a whole holds those more often. Active and inactive are the calls of the source. Cut-off read from the data, not from the text of the source: active = growth inhibition above about 70%; inactive = the rest.
Log the outcome using a class from active, inactive

Field: example entries. Status: answers known.
Req: // return assay outcome for "O=[N+]([O-])c1ccc([I+]c2ccccc2)cc1"
Resp: active

Req: // return assay outcome for CC1(c2ccc(O)cc2)CCC(C(C)(C)c2ccc(O)cc2)CC1 (stereo unspecified)
Resp: active

Req: // return assay outcome for "CN(C)c1ccc(C(C#N)(c2ccccc2)c2ccc(N(C)C)cc2)cc1"
Resp: active

More entries:
Req: // return assay outcome for "O=C(c1ccccc1)c1ccc(O)c2ncccc12"
Resp: active

Req: // return assay outcome for "Cc1ccc(Nc2n[nH]c(=S)s2)cc1F"
Resp: active

Req: // return assay outcome for "CC(=O)Nc1nc(-c2ccccc2)cs1"
Resp: inactive

====

Test: NCI Yeast Anticancer Drug Screen. Data for the cln2 rad14 strain (AID 165);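 note: 0% = growth equal to vehicle treated cultures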
Details: S. cerevisiae cln2 rad14 strain, at 50.0 µM (retest, dose inferred, filed as 5.0), stronger effect = higher value
Compounds without any hit were thinned out: in the full panel of roughly 79,000, 15% have a hit.
Recorded growth inhibition, one value per entry.
A number alone suffices; assume %.

# annotated cases, reported growth inhibition shown
Req: Dear colleague, I am looking for the recorded growth inhibition of the following molecule: Nc1nc2ncc(CNc3ccc(C(=O)NC(CCC(=O)NC(CCC(=O)NC(CCC(=O)NC(CCC(=O)NC(CCC(=O)O)C(=O)O)C(=O)O)C(=O)O)C(=O)O)C(=O)O)cc3)nc2c(=O)[nH]1 (stereo unspecified)
Resp: 1

Req: Dear colleague, I am looking for the recorded growth inhibition of the following molecule: "Cc1cc(C(N)=O)cc(C)c1C(=O)OCCCl"
Resp: -8

Req: Dear colleague, I am looking for the recorded growth inhibition of the following molecule: "O=Nc1ccc2ccccc2c1O"
Resp: 63

Req: Dear colleague, I am looking for the recorded growth inhibition of the following molecule: "C=c1c2ccccc2oc2nc3[nH]c(N)c(C#N)c(N)c3c(=N)c12"
Resp: 74

Req: Dear colleague, I am looking for the recorded growth inhibition of the following molecule: "O=[N+]([O-])/C=C/c1cccs1"
Resp: 99

Req: Dear colleague, I am looking for the recorded growth inhibition of the following molecule: "O=S(=O)(O)c1cnccn1"
Resp: 3

Req: Dear colleague, I am looking for the recorded growth inhibition of the following molecule: "Cc1cc(Br)c2nsnc2c1[N+](=O)[O-]"
Resp: 88

Req: Dear colleague, I am looking for the recorded growth inhibition of the following molecule: "O=C(Nc1cccc(C(F)(F)F)c1)Oc1ccc(Cl)c2cccnc12"
Resp: 98

Req: Dear colleague, I am looking for the recorded growth inhibition of the following molecule: "O=C(CCc1ccccc1)ON1C(=S)NC(c2ccccc2)(c2ccccc2)C1=S"
Resp: 59

Req: Dear colleague, I am looking for the recorded growth inhibition of the following molecule: "NC(=S)N/N=C\c1nccc2c(C(F)(F)F)cccc12"
Resp: 94

Turning now to a further molecule:
Req: Dear colleague, I am looking for the recorded growth inhibition of the following molecule: "Cc1nc(Sc2nc3ccc([N+](=O)[O-])cc3s2)sc1C"
Resp: 85
